Record form. Attribute: TGI. Fill in for each entry.
System: HS 578T breast
Experiment: NCI tumour cell line growth inhibition, 48 h
Quick note: give the figure in µM, leave out the unit.

Quick one: give measured TGI for CN1C(=O)C(C)(C)Oc2c(-c3cn(C)c(=O)c4[nH]ccc34)cc(S(C)(=O)=O)cc21
6.71

In one line, give reported TGI of the entry CCCCCCCCCCCCCCCC(N)c1ccccc1 (centres undefined) .
4.64

Let me know recorded TGI for O=S1(=O)C=C(c2ccccc2)C(c2ccccc2)=C1 , thanks.
3.5

Read off the recorded TGI for CCCNC(=O)Nc1ccc2c(c1)Cc1cc(N(CCCl)CCCl)ccc1-2
61.4

All values here come from PubChem BioAssay (NCI).
